# assay summary: HEL cell growth inhibition (Sulforhodamine B protein-dye binding)
# Type: cell-based, human
# run conditions: human; cell growth inhibition, two days of continuous treatment
Reported values of CC50 at 2 days for individual entries

O=c1c2cccc(Cl)c2[nH]c2cc(O)cc(O)c12 [Compound 1, 5-chloro-1,3-dihydroxyacridone]: > 50 µM

Record COc1cc(O)c2c(=O)c3cc(OC)ccc3[nH]c2c1 [Compound 2, 3,7-dimethoxy-1-hydroxy-acridone] , field CC50 at 2 days: > 50 µM

###

# System: HCMV
# assay summary: HCMV plaque-elimination assay in HEL cells
# Format: cell-based, HCMV (Towne)
# run conditions: fixed concentration, five micromolar (1, 2, ACV ten micromolar; PFA 250 micromolar), HEL cells, FIG. 3
readout: inhibition of HCMV replication in plaque-elimination screen

COc1cc(O)c2c(=O)c3cccc(OC)c3[nH]c2c1 [Compound 5, 3,5-Dimethoxy-1-hydroxyyacridone]: inactive
COc1ccc2[nH]c3cc(O)cc(O)c3c(=O)c2c1 [Compound 3, 1,3-Dihydroxy-7-methoxyacridone]: inactive
